From: PubChem BioAssay (NCI)

Experiment description: NCI Yeast Anticancer Drug Screen. Data for the mlh1 strain (AID 171);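 also: 0% = growth of vehicle-treated control cultures of the same strain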
Experimental context: S. cerevisiae mlh1 strain growth inhibition; at 1.2 µM; hits give high values
This is part of a sample that, as a whole, favours compounds with a hit. Of some 79,000 tested, about 15% had one in any assay.
Endpoint: growth inhibition (%)
Give your result in % as a bare value.

Recorded growth inhibition, per entry:
molecule=O=c1oc2ccccc2c(O)c1C(c1ccc2c(c1)Cc1ccccc1-2)c1c(O)c2ccccc2oc1=O unit_spec=% observed_result=4
molecule=Cc1cc[n+](C2=C(Nc3cccc(C(F)(F)F)c3)C(=O)c3ccccc3C2=O)cc1 unit_spec=% observed_result=3
molecule=O=C(O)CCCOc1cc(Cl)c(Cl)cc1Cl unit_spec=% observed_result=-20
molecule="Cc1ccc2c(c1)C1(C)c3cc(C)ccc3SP1S2 (stereo not given)" unit_spec=% observed_result=-5
molecule=N#Cc1cc(N(CCCl)CCCl)c([N+](=O)[O-])cc1[N+](=O)[O-] unit_spec=% observed_result=34

Query string: Recorded growth inhibition of "O=P(Oc1ccc(Cl)cc1)(Oc1ccc(Cl)cc1)N1CC1" , please.
Result string: -3

Query string: Cool, now CCC(=O)OC1CCn2c1nc1c2C(=O)C(C)=C(N2CC2)C1=O (stereo not given)
Result string: 5

Query string: Cool, now CCC1(O)C(=O)OCc2c1cc1n(c2=O)Cc2cc3cc(Cl)ccc3nc2-1 (stereo not given)
Result string: 3

Query string: Cool, now "O=c1oc2ccccc2c(O)c1C(c1ccc2ccccc2c1)c1c(O)c2ccccc2oc1=O"
Result string: -1

Query string: Cool, now CC1CN1C1=C(Cl)C(=O)C(N2CC2C)=C(Cl)C1=O (stereo not given)
Result string: -1
